Tested on: Escherichia coli NCTC 8196
measurement_notes: MIC, microtitre dilution test (growth by optical density at 620 nm)
Assay type: cell-based
setup_conditions: Table 5
metric_name: MIC [ppm] E. coil

Solved entries (count: 10):
1) CCCN1CCC2c3c([nH]c4cc(OC)ccc34)C3C(=O)NC(=O)C3C2C1 (centres unmarked) [Compound 231]	>120 ppm
2) COc1cccc2[nH]c3c(c12)C1CCCCCCCCCCC1C1C(=O)NC(=O)C31 (centres unmarked) [Compound 188]	>120 ppm
3) CCCN1CCC2c3c([nH]c4cccc(C)c34)C3C(=O)NC(=O)C3C2C1 (centres unmarked) [Compound 186]	>120 ppm
4) CCCN1CCC2c3c([nH]c4cc(F)c(F)cc34)C3C(=O)NC(=O)C3C2C1 (centres unmarked) [Compound 219]	>120 ppm
5) CCCN1CCC2c3c([nH]c4cccc(C(=O)OC)c34)C3C(=O)NC(=O)C3C2C1 (centres unmarked) [Compound 201]	>120 ppm
6) CCCN1CCC2c3c([nH]c4ccc(C(=O)OC)cc34)C3C(=O)NC(=O)C3C2C1 (centres unmarked) [Compound 235]	>120 ppm
7) CC(C)NCC(O)COc1cccc2[nH]c3c(c12)C1CCCCCC1C1C(=O)NC(=O)C31 (centres unmarked) [Compound 189]	120 ppm
8) CCCN1CCC2c3c([nH]c4cc(F)ccc34)C3C(=O)NC(=O)C3C2C1 (centres unmarked) [Compound 207]	>120 ppm
9) CCCN1CCC2c3c([nH]c4c(OC)cccc34)C3C(=O)NC(=O)C3C2C1 (centres unmarked) [Compound 229]	>120 ppm
10) CCCN1CCC2c3c([nH]c4c(C)cccc34)C3C(=O)NC(=O)C3C2C1 (centres unmarked) [Compound 222]	120 ppm

In one line, give reported MIC [ppm] E. coil of the entry CCCN1CCC2c3c([nH]c4ccc(F)cc34)C3C(=O)NC(=O)C3C2C1 (centres unmarked) [Compound 193] . 60 ppm

Using known records, supply MIC [ppm] E. coil for O=C1NC(=O)C2C1c1[nH]c3ccccc3c1C1CC3CCCCC3CC12 (centres unmarked) [Compound 183] >120 ppm

Quick one: give measured MIC [ppm] E. coil for CCCN1CCC2c3c([nH]c4cccc(Cl)c34)C3C(=O)NC(=O)C3C2C1 (centres unmarked) [Compound 224] >120 ppm

Specify MIC [ppm] E. coil for CCCN1CCC2c3c([nH]c4cc(OC)c(OC)cc34)C3C(=O)NC(=O)C3C2C1 (centres unmarked) [Compound 238] and stop. >120 ppm

Please give measured MIC [ppm] E. coil of the following entry: CCCN1CCC2c3c([nH]c4c(F)cccc34)C3C(=O)NC(=O)C3C2C1 (centres unmarked) [Compound 211] 120 ppm

Consider the compound CCCN1CCC2c3c([nH]c4cccc(F)c34)C3C(=O)NC(=O)C3C2C1 (centres unmarked) [Compound 226] and give its recorded MIC [ppm] E. coil. 120 ppm

Supply reported MIC [ppm] E. coil belonging to this compound: COc1cccc2[nH]c3c(c12)C1CCCCCC1C1C(=O)NC(=O)C31 (centres unmarked) [Compound 187] >120 ppm
